TARGET_OF_ASSAY: H1299 cell pMer (Homo sapiens, UniProt Q12866)
Construct: endogenous in cells
Sequence (Q12866 21-999): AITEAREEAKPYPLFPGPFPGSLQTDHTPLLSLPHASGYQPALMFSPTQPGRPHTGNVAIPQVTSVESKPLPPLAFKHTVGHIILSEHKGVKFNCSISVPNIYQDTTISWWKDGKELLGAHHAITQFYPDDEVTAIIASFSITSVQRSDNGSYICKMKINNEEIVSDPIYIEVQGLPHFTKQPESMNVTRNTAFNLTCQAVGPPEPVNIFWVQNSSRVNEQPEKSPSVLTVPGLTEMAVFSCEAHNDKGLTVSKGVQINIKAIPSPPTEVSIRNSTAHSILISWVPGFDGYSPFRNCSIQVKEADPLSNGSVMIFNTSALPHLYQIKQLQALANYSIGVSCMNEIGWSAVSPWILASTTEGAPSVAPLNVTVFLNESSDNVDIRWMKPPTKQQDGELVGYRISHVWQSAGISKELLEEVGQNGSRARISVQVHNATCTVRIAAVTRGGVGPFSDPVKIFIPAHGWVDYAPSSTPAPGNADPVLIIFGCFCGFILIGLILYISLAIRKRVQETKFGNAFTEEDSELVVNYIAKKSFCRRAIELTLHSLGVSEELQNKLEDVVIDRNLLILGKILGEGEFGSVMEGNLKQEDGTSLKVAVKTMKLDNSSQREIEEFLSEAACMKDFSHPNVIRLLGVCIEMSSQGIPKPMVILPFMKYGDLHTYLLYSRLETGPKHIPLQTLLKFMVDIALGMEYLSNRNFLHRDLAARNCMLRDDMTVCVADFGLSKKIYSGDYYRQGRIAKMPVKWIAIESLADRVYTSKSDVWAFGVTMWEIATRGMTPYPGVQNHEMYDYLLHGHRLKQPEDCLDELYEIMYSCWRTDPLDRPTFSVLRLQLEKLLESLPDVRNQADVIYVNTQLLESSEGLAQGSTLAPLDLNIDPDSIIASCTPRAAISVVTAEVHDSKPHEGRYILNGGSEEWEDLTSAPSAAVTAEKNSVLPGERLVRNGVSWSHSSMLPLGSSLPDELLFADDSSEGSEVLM
EXPERIMENTAL_PROTOCOL: Inhibitory activity on cell pMer (H1299 cells, Human MerMab stimulation, Western Blot)
CONDITION_NOTES: Human MerMab 200 ng/mL, tested at 0.37, 1.1, 3.3 and 10 nM
READOUT_KIND: IC50

MOLECULE: C=CCn1cc(-c2ccc(F)cc2)c(=O)c(C(=O)Nc2ccc(Oc3ccnc(N)c3Cl)cn2)n1 [Compound 35]
IC50: 0.37 nM
//
MOLECULE: C=CCn1cc(-c2ccc(F)cc2)c(=O)c(C(=O)Nc2ccc(Oc3ccnc(N)c3Cl)nc2)n1 [Compound 39]
IC50: 3.3 to 10 nM
//
MOLECULE: Nc1nccc(Oc2ccc(NC(=O)c3nn(C4CC4)cc(-c4ccc(F)cc4)c3=O)nc2)c1Cl [Compound 17]
IC50: < 1.1 nM

q: Bench note: what IC50 did Cn1cc(-c2ccc(F)cc2)c(=O)c(C(=O)Nc2ccc(Oc3ccnc(N)c3Cl)cn2)n1 [Compound 33] show?
a: 3.3 nM
